Target: T1, human CLD18A1 (human, UniProt P56856 1-261)
T1 construct: on transfected HEK293 or CHO cells; also called claudin 18 splice variant 1; NP-057453
Experiment: flow cytometry on HEK293-CLD18A1 cells

binder	binding result
ch-43A11 (antibody, V domains shown, mouse/human chimeric, human gamma-1 and kappa constant regions; also called chimeric 43A11) VH: QVQLQQSGAELMKPGASVKISCKATGYTFSSYWIEWVKQRPGHGLEWIGEILPGSGSTNYNEKFKGKATFTADTSSNTAYMQLSSLTSEDSAVYYCARYDYPWFAYWGQGTLVTVSA VL: QIVLTQSPAIMSASPGEKVTITCSASSSVSYMHWFQQKPGTSPKLWIYSTSNLASGVPARFSGSGSGTSYSLTISRMEAEDAATYYCQQRSSYPPTFGGGTKLEIKR	no binding
ch-125E1 (antibody, V domains shown, mouse/human chimeric, human gamma-1 and kappa constant regions; also called chimeric 125E1) VH: QVQLQQSGAELARPGASVKLSCKASGYTFTDYYINWVKQRTGQGLEWIGEIYPGSGNTYYNEKFKGKATLTADKSSSTAYMQLSSLTSEDSAVYFCARSYGAFDYWGQGTTLTVSS VL: DIVMTQSQKFMSTSVGDRVSITCKASQNVRTAVAWYQQKPGQSPKALIYLASNRHTGVPDRFTGSGSGTDFTLTISNVQSEDLADYFCLQHWNYPLTFGGGTKLEIKR	no binding
ch-166E2 (antibody, V domains shown, mouse/human chimeric, human gamma-1 and kappa constant regions; also called chimeric 166E2) VH: QVQLQQSGPELVKPGASVKMSCKASGYTFTDYVISWVKQRTGQGLEWIGEIYPGSGSTYYNEKFKGKATLTADKSSNTAYMQLSSLTSEDSAVYFCARGVLLRAMDYWGQGTSVTVSS VL: DIVMSQSPSSLAVSAGEKVTMSCKSSQSLLNSRTRKNYLAWYQQKPGQSPKLLIYWASTRESGVPDRFTGSGSGTDFTLTISSVQAEDLAVYYCKQSYNLYTFGGGTKLEIKR	no binding
